assay: xn = mol fraction of the nth substance listed; conditions: 298.15 K; 100.5 kPa; Liquid; Capillary tube (Ostwald / Ubbelohde) method; x1 = 0.6
Assay Metric: viscosity (mPa·s)
Numeric only. Scale: mPa·s

Example entries begin here.
Molecule: CCOC(=O)CC(C)=O [ethyl 3-oxobutanoate] + CCO
Observed Result: 1.189
//
Molecule: COC(=O)c1ccccc1 [methyl benzoate] + CCO
Observed Result: 1.384

Problem: // viscosity lookup, key: CCOC(=O)CC(C)C [ethyl 3-methylbutanoate] + CCO
Result: 0.719

Problem: // viscosity lookup, key: CC(=O)OCc1ccccc1 [benzyl ethanoate] + CCO
Result: 1.518

Problem: // viscosity lookup, key: CCC(=O)OCc1ccccc1 [benzyl propanoate] + CCO
Result: 1.621

====

test: xn = mol fraction of the nth substance listed; conditions: 308.15 K; 100.5 kPa; Liquid; Capillary tube (Ostwald / Ubbelohde) method; x1 = 0.25
Assay Metric: viscosity (mPa·s)
Numeric only. Scale: mPa·s

Example entries begin here.
Compound: CCOC(=O)CC(C)C [ethyl 3-methylbutanoate] + CCO
viscosity, mPa·s: 0.695

Compound: COC(=O)c1ccccc1 [methyl benzoate] + CCO
viscosity, mPa·s: 0.958

Compound: CCOC(=O)CC(C)=O [ethyl 3-oxobutanoate] + CCO
viscosity, mPa·s: 0.846

Compound: CCC(=O)OCc1ccccc1 [benzyl propanoate] + CCO
viscosity, mPa·s: 1.044

Problem: // viscosity lookup, key: CC(=O)OCc1ccccc1 [benzyl ethanoate] + CCO
Result: 0.998

====

experiment: xn = mol fraction of the nth substance listed; conditions: 288.15 K; 100.5 kPa; Liquid; x1 = 0.6
± gives the expanded uncertainty stated by the source.
Assay Metric: mass density

Example entries begin here.
Compound: CC(=O)OCc1ccccc1 [benzyl ethanoate] + CCO
Observed Result: 1004.68 ± 0.21 kg/m3
--
Compound: COC(=O)c1ccccc1 [methyl benzoate] + CCO
Observed Result: 1024.33 ± 0.33 kg/m3
--
Compound: CCC(=O)OCc1ccccc1 [benzyl propanoate] + CCO
Observed Result: 990.54 ± 0.25 kg/m3

Attention now shifts to the item below.
Problem: // mass density lookup, key: CCOC(=O)CC(C)=O [ethyl 3-oxobutanoate] + CCO
Result: 977.79 ± 0.31 kg/m3

====

experiment: xn = mol fraction of the nth substance listed; conditions: 298.15 K; 100.5 kPa; Liquid; Capillary tube (Ostwald / Ubbelohde) method; x1 = 0.65
Assay Metric: viscosity (mPa·s)
Numeric only. Scale: mPa·s

Example entries begin here.
Molecule: CCOC(=O)CC(C)=O [ethyl 3-oxobutanoate] + CCO
viscosity [mPa·s]: 1.227
--
Molecule: CCOC(=O)CC(C)C [ethyl 3-methylbutanoate] + CCO
viscosity [mPa·s]: 0.713
--
Molecule: CCC(=O)OCc1ccccc1 [benzyl propanoate] + CCO
viscosity [mPa·s]: 1.678

Attention now shifts to the item below.
Problem: // viscosity lookup, key: COC(=O)c1ccccc1 [methyl benzoate] + CCO
Result: 1.429

====

A collection of compounds and their measured mass density
test: xn = mol fraction of the nth substance listed; settings: 288.15 K; 100.5 kPa; Liquid; x1 = 0.7
Numeric only. Scale: kg/m3

Problem: // mass density lookup, key: CCOC(=O)CC(C)=O [ethyl 3-oxobutanoate] + CCO
Result: 994.51

Problem: // mass density lookup, key: CC(=O)OCc1ccccc1 [benzyl ethanoate] + CCO
Result: 1021.55

Problem: // mass density lookup, key: CCC(=O)OCc1ccccc1 [benzyl propanoate] + CCO
Result: 1004.81

====

A collection of compounds and their measured mass density
test: xn = mol fraction of the nth substance listed; conditions: 298.15 K; 100.5 kPa; Liquid; x1 = 0.75
Numeric only. Scale: kg/m3

Example entries begin here.
Compound: CC(=O)OCc1ccccc1 [benzyl ethanoate] + CCO
mass density, kg/m3: 1019.58
--
Compound: CCOC(=O)CC(C)=O [ethyl 3-oxobutanoate] + CCO
mass density, kg/m3: 991.71

Attention now shifts to the item below.
Problem: // mass density lookup, key: CCC(=O)OCc1ccccc1 [benzyl propanoate] + CCO
Result: 1001.73

====

assay: xn = mol fraction of the nth substance listed; conditions: 308.15 K; 100.5 kPa; Liquid; x1 = 0.6
Numbers after ± are expanded uncertainties.
Assay Metric: mass density

Example entries begin here.
Compound: COC(=O)c1ccccc1 [methyl benzoate] + CCO
mass density: 1005.11 ± 0.31 kg/m3
//
Compound: CCC(=O)OCc1ccccc1 [benzyl propanoate] + CCO
mass density: 971.74 ± 0.27 kg/m3

Problem: // mass density lookup, key: CC(=O)OCc1ccccc1 [benzyl ethanoate] + CCO
Result: 985.66 ± 0.22 kg/m3

====

A collection of molecules and their measured mass density
test: xn = mol fraction of the nth substance listed; details: 308.15 K; 100.5 kPa; Liquid; x1 = 0.5
Numeric only. Scale: kg/m3

Example entries begin here.
Molecule: CC(=O)OCc1ccccc1 [benzyl ethanoate] + CCO
Assay Metric: mass density
Observed Result: 965.91
//
Molecule: COC(=O)c1ccccc1 [methyl benzoate] + CCO
Assay Metric: mass density
Observed Result: 981.53

Attention now shifts to the item below.
Problem: // mass density lookup, key: CCOC(=O)CC(C)C [ethyl 3-methylbutanoate] + CCO
Result: 828.15

====

assay: xn = mol fraction of the nth substance listed; conditions: 318.15 K; 100.5 kPa; Liquid; Capillary tube (Ostwald / Ubbelohde) method; x1 = 0.9
A collection of molecules and their measured viscosity
Numeric only. Scale: mPa·s

Example entries begin here.
Molecule: CC(=O)OCc1ccccc1 [benzyl ethanoate] + CCO
viscosity [mPa·s]: 1.341
//
Molecule: COC(=O)c1ccccc1 [methyl benzoate] + CCO
viscosity [mPa·s]: 1.208

Problem: // viscosity lookup, key: CCOC(=O)CC(C)=O [ethyl 3-oxobutanoate] + CCO
Result: 1.059

====

A collection of compounds and their measured mass density
assay: xn = mol fraction of the nth substance listed; conditions: 318.15 K; 100.5 kPa; Liquid; x1 = 0.9
Numeric only. Scale: kg/m3

Example entries begin here.
Compound: CCC(=O)OCc1ccccc1 [benzyl propanoate] + CCO
Assay Metric: mass density
Value Unit: kg/m3
Observed Result: 999.64

Compound: CC(=O)OCc1ccccc1 [benzyl ethanoate] + CCO
Assay Metric: mass density
Value Unit: kg/m3
Observed Result: 1020.53

Attention now shifts to the item below.
Problem: // mass density lookup, key: CCOC(=O)CC(C)=O [ethyl 3-oxobutanoate] + CCO
Result: 990.84
